Target: Neuronal acetylcholine receptor; alpha3/beta4 (Rattus norvegicus, UniProt P04757+P12392)
Sequence (P04757 whole entry): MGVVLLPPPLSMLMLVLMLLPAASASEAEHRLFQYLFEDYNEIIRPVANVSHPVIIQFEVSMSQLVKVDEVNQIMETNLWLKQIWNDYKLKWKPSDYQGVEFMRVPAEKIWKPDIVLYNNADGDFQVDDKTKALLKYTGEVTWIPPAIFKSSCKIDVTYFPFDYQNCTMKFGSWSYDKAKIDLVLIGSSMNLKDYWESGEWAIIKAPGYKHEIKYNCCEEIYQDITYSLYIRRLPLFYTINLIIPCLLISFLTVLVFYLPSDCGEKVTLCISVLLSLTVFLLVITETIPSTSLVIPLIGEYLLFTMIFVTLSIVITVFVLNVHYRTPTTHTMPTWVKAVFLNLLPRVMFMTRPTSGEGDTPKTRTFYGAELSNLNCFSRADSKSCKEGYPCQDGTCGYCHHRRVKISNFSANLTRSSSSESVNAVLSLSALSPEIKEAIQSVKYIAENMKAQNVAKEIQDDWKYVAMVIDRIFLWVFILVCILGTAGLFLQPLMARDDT
Sequence (P12392 whole entry): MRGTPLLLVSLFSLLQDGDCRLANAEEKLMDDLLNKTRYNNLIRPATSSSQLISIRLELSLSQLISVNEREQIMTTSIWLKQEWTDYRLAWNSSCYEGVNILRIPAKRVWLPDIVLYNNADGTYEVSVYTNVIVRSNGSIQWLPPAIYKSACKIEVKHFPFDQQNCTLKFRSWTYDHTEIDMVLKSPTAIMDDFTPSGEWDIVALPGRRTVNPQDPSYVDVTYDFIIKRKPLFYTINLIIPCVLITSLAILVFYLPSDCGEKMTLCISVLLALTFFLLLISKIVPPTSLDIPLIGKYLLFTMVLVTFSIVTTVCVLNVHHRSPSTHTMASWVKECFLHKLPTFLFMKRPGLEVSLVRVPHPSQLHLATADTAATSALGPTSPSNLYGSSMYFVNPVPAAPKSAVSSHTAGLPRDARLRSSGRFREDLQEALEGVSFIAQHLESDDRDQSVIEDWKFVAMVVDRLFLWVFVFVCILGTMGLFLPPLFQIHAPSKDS
Test: Effective concentration in KXalpha-3-beta-4R2 cells expressing rat nicotinic acetylcholine receptor alpha3-beta4 subunits
Entries annotated with measured pEC50
To interpret pEC50, take it as minus log10 of a concentration measured in moles per litre.

(Q) Can you look up the measured pEC50 of O=c1ccc(Br)c2n1CC1CNCC2C1 (stereo unspecified) for me?
(A) 7.41

----------
Entries annotated with measured Affinity
Target: Neuronal acetylcholine receptor; alpha4/beta2 (Rattus norvegicus) (UniProt P09483+P12390)
Test: Binding affinity (Ki) for rat brain nicotinic receptors […] alpha-4 and beta2 subunits versus 0.5 nM [3H](1)-epibatidine
The reply should be a number in nM, with the unit left off.

(Q) For Neuronal acetylcholine receptor; alpha4/beta2 (Rattus norvegicus) (UniProt P09483+P12390), provide Affinity of O=c1c(I)ccc2n1CC1CNCC2C1 (configuration not stated) please.
(A) 0.017

(Q) For Neuronal acetylcholine receptor; alpha4/beta2 (Rattus norvegicus) (UniProt P09483+P12390), provide Affinity of C[N+]1(C)CC2CC(C1)c1cccc(=O)n1C2 (configuration not stated) please.
(A) 0.238

(Q) For Neuronal acetylcholine receptor; alpha4/beta2 (Rattus norvegicus) (UniProt P09483+P12390), provide Affinity of O=c1ccc(Br)c2n1CC1CNCC2C1 (configuration not stated) please.
(A) 0.308

(Q) For Neuronal acetylcholine receptor; alpha4/beta2 (Rattus norvegicus) (UniProt P09483+P12390), provide Affinity of O=c1c(I)cc(I)c2n1CC1CNCC2C1 (configuration not stated) please.
(A) 0.52

(Q) For Neuronal acetylcholine receptor; alpha4/beta2 (Rattus norvegicus) (UniProt P09483+P12390), provide Affinity of O=c1c(Cl)cc(Cl)c2n1CC1CNCC2C1 (configuration not stated) please.
(A) 2.5

(Q) For Neuronal acetylcholine receptor; alpha4/beta2 (Rattus norvegicus) (UniProt P09483+P12390), provide Affinity of O=c1c(Cl)ccc2n1CC1CNCC2C1 (configuration not stated) please.
(A) 0.022

Others:
(Q) For Neuronal acetylcholine receptor; alpha4/beta2 (Rattus norvegicus) (UniProt P09483+P12390), provide Affinity of S=c1cccc2n1CC1CNCC2C1 (configuration not stated) please.
(A) 0.832

(Q) For Neuronal acetylcholine receptor; alpha4/beta2 (Rattus norvegicus) (UniProt P09483+P12390), provide Affinity of O=c1cccc2n1C[C@@H]1CNC[C@H]2C1 [CYTISINICLINE] please.
(A) 0.124

(Q) For Neuronal acetylcholine receptor; alpha4/beta2 (Rattus norvegicus) (UniProt P09483+P12390), provide Affinity of Clc1ccc(C2CC3CCC2N3)cn1 (configuration not stated) [EPIBATIDINE] please.
(A) 0.0072

(Q) For Neuronal acetylcholine receptor; alpha4/beta2 (Rattus norvegicus) (UniProt P09483+P12390), provide Affinity of O=c1ccc(Cl)c2n1CC1CNCC2C1 (configuration not stated) please.
(A) 2.5

(Q) For Neuronal acetylcholine receptor; alpha4/beta2 (Rattus norvegicus) (UniProt P09483+P12390), provide Affinity of O=c1c(Br)cc(Br)c2n1CC1CNCC2C1 (configuration not stated) please.
(A) 10.8

(Q) For Neuronal acetylcholine receptor; alpha4/beta2 (Rattus norvegicus) (UniProt P09483+P12390), provide Affinity of O=c1c(Br)ccc2n1CC1CNCC2C1 (configuration not stated) please.
(A) 0.01

----------
Entries annotated with measured Affinity
Target: Neuronal acetylcholine receptor; alpha3/beta4 (Rattus norvegicus) (UniProt P04757+P12392)
Assay: Binding affinity (Ki) for rat nicotinic acetylcholine receptor alpha3-beta4 subunits versus 0.5 nM [3H](1)-epibatidine
Type: protein-complex assay
The reply should be a number in nM, with the unit left off.

(Q) Can you look up the measured Affinity of O=c1ccc(Br)c2n1CC1CNCC2C1 (configuration not stated) for me?
(A) 380

(Q) Can you look up the measured Affinity of O=c1ccc(Cl)c2n1CC1CNCC2C1 (configuration not stated) for me?
(A) 3900

(Q) Can you look up the measured Affinity of O=c1c(Br)ccc2n1CC1CNCC2C1 (configuration not stated) for me?
(A) 7.5

(Q) Can you look up the measured Affinity of O=c1c(Cl)ccc2n1CC1CNCC2C1 (configuration not stated) for me?
(A) 18

----------
Target: Acetylcholine receptor; alpha1/beta1/delta/gamma (Homo sapiens, UniProt P02708+P07510+P11230+Q07001)
Sequence (P02708 whole entry): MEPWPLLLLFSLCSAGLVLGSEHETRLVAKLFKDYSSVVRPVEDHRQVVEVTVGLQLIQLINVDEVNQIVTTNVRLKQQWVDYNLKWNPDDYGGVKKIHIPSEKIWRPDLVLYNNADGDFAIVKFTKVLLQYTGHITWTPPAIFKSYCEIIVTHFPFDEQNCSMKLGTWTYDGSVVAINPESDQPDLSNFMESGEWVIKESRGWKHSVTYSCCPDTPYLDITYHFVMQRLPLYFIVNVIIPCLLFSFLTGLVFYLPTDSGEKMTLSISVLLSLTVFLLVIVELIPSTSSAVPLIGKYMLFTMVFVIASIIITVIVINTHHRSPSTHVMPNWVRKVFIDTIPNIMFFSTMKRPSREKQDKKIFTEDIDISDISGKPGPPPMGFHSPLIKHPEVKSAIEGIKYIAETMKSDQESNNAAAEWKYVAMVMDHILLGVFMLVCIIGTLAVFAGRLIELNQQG
Sequence (P07510 whole entry): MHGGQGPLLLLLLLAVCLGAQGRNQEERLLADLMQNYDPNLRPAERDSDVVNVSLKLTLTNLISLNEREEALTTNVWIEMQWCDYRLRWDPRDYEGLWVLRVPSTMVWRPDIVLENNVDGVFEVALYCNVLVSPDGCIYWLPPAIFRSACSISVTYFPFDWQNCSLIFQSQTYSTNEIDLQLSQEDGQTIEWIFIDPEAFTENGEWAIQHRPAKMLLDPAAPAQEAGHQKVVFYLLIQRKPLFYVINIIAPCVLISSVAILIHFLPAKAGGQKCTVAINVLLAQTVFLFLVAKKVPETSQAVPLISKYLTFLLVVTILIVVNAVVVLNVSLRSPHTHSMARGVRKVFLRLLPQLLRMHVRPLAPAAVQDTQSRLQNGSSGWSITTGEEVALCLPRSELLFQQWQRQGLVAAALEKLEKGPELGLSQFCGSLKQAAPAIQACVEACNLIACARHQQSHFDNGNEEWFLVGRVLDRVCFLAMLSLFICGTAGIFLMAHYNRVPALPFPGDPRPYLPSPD
Sequence (P11230 whole entry): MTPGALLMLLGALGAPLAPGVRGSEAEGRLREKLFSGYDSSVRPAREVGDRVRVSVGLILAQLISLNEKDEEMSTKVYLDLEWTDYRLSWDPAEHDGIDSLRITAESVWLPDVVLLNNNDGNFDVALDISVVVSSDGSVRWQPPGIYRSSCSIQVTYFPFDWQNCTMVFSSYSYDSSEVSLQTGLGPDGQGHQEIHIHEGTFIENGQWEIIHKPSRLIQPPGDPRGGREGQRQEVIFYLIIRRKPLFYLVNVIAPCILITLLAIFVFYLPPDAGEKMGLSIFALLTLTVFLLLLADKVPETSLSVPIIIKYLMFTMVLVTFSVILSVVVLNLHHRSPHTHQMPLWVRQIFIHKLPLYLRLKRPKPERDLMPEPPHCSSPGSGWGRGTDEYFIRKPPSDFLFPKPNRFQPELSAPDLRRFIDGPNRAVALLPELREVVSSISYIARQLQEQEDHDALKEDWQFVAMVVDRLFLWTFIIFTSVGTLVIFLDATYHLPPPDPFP
Sequence (Q07001 whole entry): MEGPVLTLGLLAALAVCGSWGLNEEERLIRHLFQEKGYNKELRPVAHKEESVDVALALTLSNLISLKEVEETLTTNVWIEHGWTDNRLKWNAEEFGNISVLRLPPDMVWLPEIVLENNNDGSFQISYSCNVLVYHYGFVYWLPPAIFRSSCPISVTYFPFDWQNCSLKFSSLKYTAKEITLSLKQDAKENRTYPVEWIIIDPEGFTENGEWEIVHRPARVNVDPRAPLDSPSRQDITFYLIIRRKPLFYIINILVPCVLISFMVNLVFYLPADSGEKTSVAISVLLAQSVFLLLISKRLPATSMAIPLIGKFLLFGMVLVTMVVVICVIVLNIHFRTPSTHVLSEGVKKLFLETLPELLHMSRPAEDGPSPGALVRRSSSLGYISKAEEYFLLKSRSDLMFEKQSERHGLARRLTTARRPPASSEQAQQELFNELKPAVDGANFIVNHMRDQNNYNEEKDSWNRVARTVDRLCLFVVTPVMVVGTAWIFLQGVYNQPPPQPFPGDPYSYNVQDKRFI
Assay: Percentage efficacy in TE671 cells expressing acetylcholine neuromuscular receptor as change in membrane potential
Assay type: functional, cell-based
Conditions: TE-671
assay.readout: Efficacy (%)
The reply should be a number in %, with the unit left off.

The following compounds have reported results that may help.
(Q) Can you look up the measured Efficacy of Clc1ccc(C2CC3CCC2N3)cn1 (configuration not stated) [EPIBATIDINE] for me?
(A) 100

(Q) Can you look up the measured Efficacy of O=c1cccc2n1C[C@@H]1CNC[C@H]2C1 [CYTISINICLINE] for me?
(A) 55

(Q) Can you look up the measured Efficacy of O=c1c(I)ccc2n1CC1CNCC2C1 (configuration not stated) for me?
(A) 46

(Q) Can you look up the measured Efficacy of C[N+]1(C)CC2CC(C1)c1cccc(=O)n1C2 (configuration not stated) for me?
(A) 60

(Q) Can you look up the measured Efficacy of O=c1c(Cl)cc(Cl)c2n1CC1CNCC2C1 (configuration not stated) for me?
(A) 23

(Q) Can you look up the measured Efficacy of O=c1c(Br)ccc2n1CC1CNCC2C1 (configuration not stated) for me?
(A) 59

Now, please, on to the next compound.
(Q) Can you look up the measured Efficacy of O=c1c(Cl)ccc2n1CC1CNCC2C1 (configuration not stated) for me?
(A) 53

----------
Biological target: Neuronal acetylcholine receptor; alpha3/beta4 (Rattus norvegicus) (UniProt P04757+P12392)
Assay: Percentage efficacy in KXalpha-3-beta-4R2 cells expressing rat nicotinic acetylcholine receptor alpha-3 beta4 subunits relative to (1)-epibatidine
Assay type: functional, cell-based
Rule: Efficacy below 70% gives yes (1). Equal to or above 70% gives no (0).

Some solved entries appear below for comparison.
(Q) Could you please tell me whether Efficacy recorded for O=c1c(Cl)cc(Cl)c2n1CC1CNCC2C1 (stereo not given) is less than 70%?
(A) yes (1)

(Q) Could you please tell me whether Efficacy recorded for O=c1c(Br)ccc2n1CC1CNCC2C1 (stereo not given) is less than 70%?
(A) no (0)

Others:
(Q) Could you please tell me whether Efficacy recorded for O=c1c(I)cc(I)c2n1CC1CNCC2C1 (stereo not given) is less than 70%?
(A) yes (1)

(Q) Could you please tell me whether Efficacy recorded for O=c1cccc2n1C[C@@H]1CNC[C@H]2C1 is less than 70%?
(A) yes (1)

(Q) Could you please tell me whether Efficacy recorded for O=c1c(Br)cc(Br)c2n1CC1CNCC2C1 (stereo not given) is less than 70%?
(A) yes (1)

(Q) Could you please tell me whether Efficacy recorded for O=c1ccc(Cl)c2n1CC1CNCC2C1 (stereo not given) is less than 70%?
(A) yes (1)

(Q) Could you please tell me whether Efficacy recorded for C[N+]1(C)CC2CC(C1)c1cccc(=O)n1C2 (stereo not given) is less than 70%?
(A) yes (1)

(Q) Could you please tell me whether Efficacy recorded for O=c1c(I)ccc2n1CC1CNCC2C1 (stereo not given) is less than 70%?
(A) no (0)

(Q) Could you please tell me whether Efficacy recorded for S=c1cccc2n1CC1CNCC2C1 (stereo not given) is less than 70%?
(A) yes (1)

----------
Molecular target: Acetylcholine receptor; alpha1/beta1/delta/gamma (Homo sapiens, UniProt P02708+P07510+P11230+Q07001)
Assay: Change in membrane potential in TE-671 cells expressing acetylcholine neuromuscular receptors
Entries annotated with measured log10 of EC50
Please keep in mind that the values are log10 of EC50 expressed in nM.

(Q) Can you look up the measured log10 of EC50 of Clc1ccc(C2CC3CCC2N3)cn1 (configuration not stated) [EPIBATIDINE] for me?
(A) -1.28

Others:
(Q) Can you look up the measured log10 of EC50 of C[N+]1(C)CC2CC(C1)c1cccc(=O)n1C2 (configuration not stated) for me?
(A) 1.57

(Q) Can you look up the measured log10 of EC50 of O=c1c(Br)ccc2n1CC1CNCC2C1 (configuration not stated) for me?
(A) 1.49

----------
Target: Neuronal acetylcholine receptor; alpha4/beta2 (Homo sapiens, UniProt P17787+P43681)
Sequence (P17787 whole entry): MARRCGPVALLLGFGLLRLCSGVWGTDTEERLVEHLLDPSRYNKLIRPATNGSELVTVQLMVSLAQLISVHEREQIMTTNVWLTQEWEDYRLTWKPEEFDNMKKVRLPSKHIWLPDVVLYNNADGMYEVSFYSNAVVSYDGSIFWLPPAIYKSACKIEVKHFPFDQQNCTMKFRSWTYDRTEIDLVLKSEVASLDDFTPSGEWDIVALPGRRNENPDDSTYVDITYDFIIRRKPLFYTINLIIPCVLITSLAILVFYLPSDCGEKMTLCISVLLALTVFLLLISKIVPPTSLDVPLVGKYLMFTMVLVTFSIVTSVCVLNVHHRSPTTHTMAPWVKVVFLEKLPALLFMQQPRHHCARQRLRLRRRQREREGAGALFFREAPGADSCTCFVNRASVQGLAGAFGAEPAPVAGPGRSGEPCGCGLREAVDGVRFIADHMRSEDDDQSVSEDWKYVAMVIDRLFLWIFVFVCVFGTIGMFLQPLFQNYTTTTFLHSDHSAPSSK
Sequence (P43681 whole entry): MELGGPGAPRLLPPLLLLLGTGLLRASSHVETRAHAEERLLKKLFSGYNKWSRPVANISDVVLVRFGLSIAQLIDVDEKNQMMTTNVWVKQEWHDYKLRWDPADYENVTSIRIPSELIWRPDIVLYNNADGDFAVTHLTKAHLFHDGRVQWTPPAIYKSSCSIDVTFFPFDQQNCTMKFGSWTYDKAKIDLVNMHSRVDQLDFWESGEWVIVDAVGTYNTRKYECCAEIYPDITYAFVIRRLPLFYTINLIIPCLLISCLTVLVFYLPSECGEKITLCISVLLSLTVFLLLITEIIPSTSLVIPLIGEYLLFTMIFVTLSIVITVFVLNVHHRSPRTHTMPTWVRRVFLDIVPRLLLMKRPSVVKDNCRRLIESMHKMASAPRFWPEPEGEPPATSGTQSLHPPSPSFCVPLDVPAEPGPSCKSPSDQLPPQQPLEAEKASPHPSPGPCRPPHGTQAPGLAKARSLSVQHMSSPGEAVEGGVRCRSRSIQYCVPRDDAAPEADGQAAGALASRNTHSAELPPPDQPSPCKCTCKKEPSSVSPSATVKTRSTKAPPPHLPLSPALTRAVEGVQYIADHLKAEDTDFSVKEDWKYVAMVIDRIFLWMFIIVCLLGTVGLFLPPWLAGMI
Assay: Change in membrane potential in K-177 cells expressing acetylcholine central neuronal receptor alpha4-beta2 subunits
assay.readout: pEC50
To interpret pEC50, take it as minus log10 of a concentration measured in moles per litre.

(Q) Can you look up the measured pEC50 of O=c1c(I)cc(I)c2n1CC1CNCC2C1 (stereo unspecified) for me?
(A) 7.38

Others:
(Q) Can you look up the measured pEC50 of O=c1ccc(Br)c2n1CC1CNCC2C1 (stereo unspecified) for me?
(A) 8.96

(Q) Can you look up the measured pEC50 of O=c1c(I)ccc2n1CC1CNCC2C1 (stereo unspecified) for me?
(A) 10.44

(Q) Can you look up the measured pEC50 of O=c1ccc(Cl)c2n1CC1CNCC2C1 (stereo unspecified) for me?
(A) 8.40

(Q) Can you look up the measured pEC50 of O=c1c(Cl)ccc2n1CC1CNCC2C1 (stereo unspecified) for me?
(A) 9.96

(Q) Can you look up the measured pEC50 of S=c1cccc2n1CC1CNCC2C1 (stereo unspecified) for me?
(A) 8.66

(Q) Can you look up the measured pEC50 of C[N+]1(C)CC2CC(C1)c1cccc(=O)n1C2 (stereo unspecified) for me?
(A) 7.39

(Q) Can you look up the measured pEC50 of O=c1cccc2n1C[C@@H]1CNC[C@H]2C1 for me?
(A) 9.38

(Q) Can you look up the measured pEC50 of O=c1c(Br)ccc2n1CC1CNCC2C1 (stereo unspecified) for me?
(A) 10.30

Data origin: ChEMBL document CHEMBL1141898
